System: DeltatarO mutant
Assay: S. aureus survival, RN4220 and DeltatarO strains – OD600, teichoic acid synthesis inhibitors, primary screen (AID 463173)
Conditions: S. aureus RN4220 wild type/DeltatarO growth, OD600, 18 h, active compounds read low, screened at 18.75 µg/mL (by protocol)
The campaign covered roughly 52,000 compounds. About 4,300 (8.3%) were called active. This excerpt belongs to a sample that is enriched for actives.
Exercise: state measured survival for each of the molecules provided.
Give bare numbers, in %.

// known answers, use as guide
molecule | testSystem | experimentalResult
O=C(Nc1cccc(C(F)(F)F)c1)C1CCN(S(=O)(=O)c2cccs2)CC1 | DeltatarO mutant | 39
Cc1cc(F)ccc1S(=O)(=O)Nc1cc2c(C(=O)O)c(C)oc2c2ccccc12 | DeltatarO mutant | 39
Cc1ccc(C)c(NC(=O)CCn2cnnn2)c1 | DeltatarO mutant | 148

Batch lookup, survival per entry.
1. COc1ccc(-c2cc3ccc(O)c(CN4CCCC4)c3oc2=O)cc1OC
2. COc1ccc(C)cc1NC(=O)C1CCN(S(=O)(=O)c2ccc3[nH]c4c(c3c2)CCCCC4)CC1
3. COc1ccc(C(=O)NCc2ccc3c(c2)CCN3C(=O)c2ccccc2)cc1
4. CCOc1ccccc1NC(=O)C1CCN(S(=O)(=O)c2cccs2)CC1
5. Cc1ccc2c(c1)N(C(=O)c1ccc(F)cc1)C(C)(C)CC2(C)c1ccccc1 (stereo unspecified)
6. CCc1ccc(CNC(=O)c2ccc(NC(=O)N3CC(C)Sc4ccccc43)cc2)cc1 (stereo unspecified)
7. CCN(CC)CCn1c2c(c(SCC(=O)Nc3cccc(C(F)(F)F)c3)nc1=O)CCC2

Found:
[116, 94, 84, 58, 24, 64, 74]

Batch lookup, survival per entry.
1. CCOC(=O)c1ccc(NC(=O)C(CC)Sc2nc3ncccc3o2)cc1 (stereo unspecified)
2. COc1ccc(-c2c3c(=O)n(C)c(=O)n(C)c3cn2-c2cccc(N)c2)cc1
3. CCn1c(CNC(=O)C(OC)c2ccccc2)nnc1SC (stereo unspecified)
4. Cc1ccc(NC(=O)C2CCC(CNS(=O)(=O)c3cccc4nsnc34)CC2)c(C)c1 (stereo unspecified)
5. COc1cccc(Nc2nc3ccc(C(=O)c4ccccc4)cc3n3c(C)nnc23)c1
6. CCc1cccc(C)c1NS(=O)(=O)c1c(C(=O)N2CCCCCC2)c(C)n(C)c1C
7. COc1cccc2cc(C(=O)N3CCN(c4cc(C)ccc4C)CC3)c(=O)oc12
8. COc1ccc(C(=O)N2c3ccc(C)cc3C(C)(c3ccccc3)CC2(C)C)cc1 (stereo unspecified)

Found:
81
79
87
95
85
101
56
25

Batch lookup, survival per entry.
1. CCOC(=O)c1cccc(NC(=O)CCn2c(-c3ccc(F)cc3)cc(C(=O)OCC)c2C)c1
2. NS(=O)(=O)c1ccc(NC(=O)CCn2c(=O)oc3ccccc32)cc1
3. Cc1ccc(NC(=O)C2CCN(S(=O)(=O)c3cccs3)CC2)cc1
4. CCOC(=O)N1CCN(Cc2nc3cc(NC(=O)C(C)C)ccc3n2C(C)C)CC1
5. COc1ccc(NC(=O)C2CCCN(S(=O)(=O)c3cccs3)C2)cc1 (stereo unspecified)
6. O=C(Nc1cccc(C(F)(F)F)c1)C1CCN(S(=O)(=O)c2cccc3nsnc23)CC1

Found:
76
73
40
68
96
81

====

System: DeltatarO mutant
Assay: S. aureus survival, RN4220 and DeltatarO strains – OD600, teichoic acid synthesis inhibitors, primary screen (AID 463173)
Conditions: S. aureus RN4220 wild type/DeltatarO growth, OD600, 18 h, screened at 18.75 µg/mL (by protocol)
Hit rate of the full screen: of about 52,000 compounds, about 4,300 (8.3%) were called active. Rule as the data show it: active = survival mostly below about 52% (no sharp cut-off); inactive = mostly above about 56%. The full list was thinned out, with actives kept by preference.
Use one of these outcomes when replying: 1 for active, 0 for inactive

Solved entries (count: 3):
smilesEntry | group
Cc1cccc(NS(=O)(=O)c2ccc3c(c2)[C@H]2C=CC[C@H]2[C@@H](c2ccc(F)cc2)N3)c1 | 1
COc1ccc(-c2noc(N3CCN(c4cccc(C)c4C)CC3)n2)cc1OC | 0
Cc1ccc(NS(=O)(=O)c2ccc3c(c2)[C@H]2C=CC[C@H]2[C@@H](c2ccc(F)cc2)N3)cc1C | 0

Lookup: Fill in: this test's call for `COC(=O)c1ccc([C@H]2Nc3ccc(S(=O)(=O)Nc4cccc(C)c4)cc3[C@H]3C=CC[C@H]32)cc1` is ___
Found: 0

====

System: DeltatarO mutant
Assay: S. aureus survival, RN4220 and DeltatarO strains – OD600, teichoic acid synthesis inhibitors, primary screen (AID 463173)
Conditions: S. aureus RN4220 wild type/DeltatarO growth, OD600, 18 h, screened at 18.75 µg/mL (by protocol)
Among all 52,000 compounds or so, about 4,300 (8.3%) were called active. Cut-off read from the data, not from the text of the source: active = survival mostly below about 52% (no sharp cut-off); inactive = mostly above about 56%. What follows is part of a selection rich in actives, with near analogues and random picks from the rest.
Use one of these outcomes when replying: 1.0 for active, 0.0 for inactive

Solved entries (count: 3):
compound | testSystem | group
Cc1ccc(-c2nc3cc(NC(=O)c4cc5ccccc5o4)ccc3o2)cc1Cl | DeltatarO mutant | 0.0
Cc1ccc2nc(-c3cccnc3)c(Nc3ccc(C(C)C)cc3)n2c1 | DeltatarO mutant | 0.0
O=C(Cn1nnc2sc(-c3ccccc3)cc2c1=O)Nc1cccc(C(F)(F)F)c1 | DeltatarO mutant | 0.0

Lookup: Fill in: this test's call for `Cc1c(NC(=O)c2cc3ccccc3o2)cccc1-c1nc2ccccc2o1` is ___
Found: 1.0

Lookup: Fill in: this test's call for `Cc1onc2c1C(=O)CC(C)(C)C2` is ___
Found: 0.0

Lookup: Fill in: this test's call for `Cc1ccc(-c2nc3cc(Cl)ccc3o2)cc1NC(=O)c1cc2ccccc2o1` is ___
Found: 1.0

====

System: DeltatarO mutant
Assay: S. aureus survival, RN4220 and DeltatarO strains – OD600, teichoic acid synthesis inhibitors, primary screen (AID 463173)
Details: S. aureus RN4220 wild type/DeltatarO growth, OD600, 18 h, active compounds read low, screened at 18.75 µg/mL (by protocol)
Screen size: about 52,000 compounds; about 4,300 (8.3%) were called active. The full list was thinned out, with actives kept by preference.
readoutKind: survival (%)
Give bare numbers, in %.

// known answers, use as guide
molecule | testSystem | survival / %
CSc1ncc(Cl)c(C(=O)Nc2ccc(S(=O)(=O)N3CCCC(C)C3)cc2)n1 (stereo not given) | DeltatarO mutant | 79
CS(=O)(=O)c1ncc(Cl)c(C(=O)Nc2c(C(=O)Nc3ccccc3)oc3ccccc23)n1 | DeltatarO mutant | 55
CC(C)Sc1ncc(Cl)c(C(=O)Nc2ccc(S(=O)(=O)Nc3ncccn3)cc2)n1 | DeltatarO mutant | 50
CC(=O)c1ccc(NC(=O)COc2ccccc2-c2nc(-c3ccccc3)no2)cc1 | DeltatarO mutant | 48

We next turn to a different molecule, shown below.
Lookup: Data request, read-out survival, for `CCN(c1ccccc1)S(=O)(=O)c1ccc(NC(=O)c2nc(SC)ncc2Cl)cc1`
Found: 55

====

System: DeltatarO mutant
Experiment: S. aureus survival, RN4220 and DeltatarO strains – OD600, teichoic acid synthesis inhibitors, primary screen (AID 463173)
Conditions: S. aureus RN4220 wild type/DeltatarO growth, OD600, 18 h, screened at 18.75 µg/mL (by protocol)
The whole screen tested about 52,000 compounds, of which about 4,300 (8.3%) were called active. Rule as the data show it: active = survival mostly below about 52% (no sharp cut-off); inactive = mostly above about 56%. The entries come from a sample that favours actives as a whole.
Use one of these outcomes when replying: yes for active, no for inactive

Solved entries (count: 3):
molecule | group
COC(=O)c1ccccc1NC(=O)c1cc(CN2CCCC2)on1 | no
Cc1ccc(CNC(=O)c2cc(-c3ccc(Cl)cc3)on2)cc1 | no
Cc1nc(SCc2cc(=O)c3cccc(F)c3[nH]2)n[nH]1 | no

Lookup: Fill in: this test's call for CCOc1c(Br)cc(C2CC(=O)Nc3cc4c(cc32)OCO4)cc1OC (stereo unspecified) is ___
Found: no

Lookup: Fill in: this test's call for `CCn1c(-c2ccc(S(=O)(=O)N3CCOCC3)cc2)csc1=Nc1ccc(C)c(Cl)c1` is ___
Found: no

Lookup: Fill in: this test's call for `Cc1ccc(NC(=O)c2c(NC(=O)c3ccccc3)sc3c2CCC3)cc1` is ___
Found: no

Lookup: Fill in: this test's call for `COc1ccc(NC(=O)c2c(NC(=O)COc3ccccc3)sc3c2CCCCC3)cc1` is ___
Found: no

====

Tested on: DeltatarO mutant
Experiment: S. aureus survival, RN4220 and DeltatarO strains – OD600, teichoic acid synthesis inhibitors, primary screen (AID 463173)
Conditions: S. aureus RN4220 wild type/DeltatarO growth, OD600, 18 h, screened at 18.75 µg/mL (by protocol)
Screen size: about 52,000 compounds; about 4,300 (8.3%) were called active. Cut-off read from the data, not from the text of the source: active = survival mostly below about 52% (no sharp cut-off); inactive = mostly above about 56%. Many of the other results were omitted from the sample, so actives are more common in it than they were.
Use one of these outcomes when replying: active, inactive

Solved entries (count: 8):
compound | group
COc1cccc(C2CC(=O)Nc3c2c(=O)n(C)c2ncnn32)c1OC (configuration not stated) | inactive
O=C(CSc1nnc(-c2ccc3c(c2)OCO3)o1)Oc1ccccc1 | inactive
O=C(NCCc1ccccc1)c1ccc2c(c1)N(Cc1ccc(F)cc1)C(=O)c1ccccc1S2 | inactive
COc1cc(C(=O)Nc2nnc(S(=O)(=O)N(C)c3ccccc3)s2)cc(OC)c1OC | active
Cc1ccc(-c2nc(C)c(CCNS(=O)(=O)c3ccc(F)c(C(F)(F)F)c3)s2)cc1 | active
Cc1cccc(Cn2c(SCc3ccc(C(=O)NCc4ccccc4)cc3)nc3cccnc32)c1 | active
CCOc1ccc(CNC(=O)c2ccc3c(c2)nc2n3CCC(C)C2)cc1OC (configuration not stated) | inactive
COc1ccc(Cc2nc3ccc(C(=O)NCc4cc(Br)ccc4OC)cc3o2)cc1 | inactive

Lookup: Fill in: this test's call for `CCOc1ccc(CNC(=O)c2ccc3c(c2)nc2n3CCOC2)cc1` is ___
Found: inactive

Lookup: Fill in: this test's call for `CC(C)C(=O)Nc1cccc(C(=O)Nc2nnc(C(F)(F)F)s2)c1` is ___
Found: inactive

Lookup: Fill in: this test's call for `CN(Cc1ccccc1)C(=O)CSc1nnc(-c2cccc(Cl)c2)o1` is ___
Found: inactive

Lookup: Fill in: this test's call for `Cc1ccc(-c2nc(C)c(CCNS(=O)(=O)c3ccccc3F)s2)cc1` is ___
Found: inactive

Lookup: Fill in: this test's call for `CCOc1ccc(S(=O)(=O)NCCc2sc(-c3ccc(C)cc3)nc2C)cc1` is ___
Found: inactive

Lookup: Fill in: this test's call for `CN1/C(=C\C(=O)Nc2cccnc2)c2ccccc2CC1(C)C` is ___
Found: inactive

Lookup: Fill in: this test's call for `COc1cccc(C(=O)NC(=S)NCc2ccco2)c1` is ___
Found: inactive

Lookup: Fill in: this test's call for `CCCOc1ccc(Cn2c(=O)sc3ccccc32)cc1` is ___
Found: active

Lookup: Fill in: this test's call for `O=C(NCc1ccccc1Cl)c1ccc(CS(=O)(=O)c2ccc(Br)cc2)o1` is ___
Found: inactive

Lookup: Fill in: this test's call for Cc1ccc(C(=O)CSc2nc3cc(C(=O)NC4CCCC4)ccc3c(=O)n2CC2CCCO2)cc1 (configuration not stated) is ___
Found: inactive
